The origin of these recorded values is paper PMC3903617.

- Experimental system: T1, monocyte chemo-attractant protein-1 (MCP-1) (Homo sapiens (Human)., UniProt P13500)
- T1 construct: MCP-1 (monocyte chemo-attractant protein-1), chemokine; synthetic gene optimised for E. coli in pET26b; Probably the mature human chemokine, as in PDB 2BDN; also called monocyte chemotactic protein-1; antigen; source: E. coli Rosetta2 (DE3), purified (Ni-NTA, SEC)
- Test description: SPR; Biacore T200; MCP-1 immobilised on a CM5 chip by amine coupling (~220 RU), scFv injected at 30 µl/min; PBS with 0.005% Tween-20; 25°C; global fit, 1:1 Langmuir model; KD from koff/kon
- Condition description: both partners purified
pKd: −log10 of the molar value.
Reported metric: pKd

# Binder, Result value
measured = [
    ("11K2 scFv mutein L-S53D (scFv, V domains shown, PDB 2BDN heavy chain; PDB 2BDN light chain) with the stated change) VH: EVQLQQSGAELVKAGASVKLSCPASGLNIKDTYMHWVKQRPEQGLEWIGRIDPANGNTKFDPKFQGKATITADTSSNTAYLQLSSLTSEDTAVYYCARGVFGFFDYWGQGTTLTVSS VL: DIQMTQSSSSFSVSLGDRVTITCKATEDIYNRLAWYQQKPGSAPRLLISGATDLETGVPSRFSGSGSGKDYTLSITSLQTEDVATYYCQQFWSAPYTFGGGTKLEIK", 9.21),
    ("11K2 scFv mutein L-S53E (scFv, V domains shown, PDB 2BDN heavy chain; PDB 2BDN light chain) with the stated change) VH: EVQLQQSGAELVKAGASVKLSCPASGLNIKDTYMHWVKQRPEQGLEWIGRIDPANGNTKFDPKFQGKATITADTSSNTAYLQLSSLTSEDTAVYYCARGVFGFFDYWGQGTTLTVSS VL: DIQMTQSSSSFSVSLGDRVTITCKATEDIYNRLAWYQQKPGSAPRLLISGATELETGVPSRFSGSGSGKDYTLSITSLQTEDVATYYCQQFWSAPYTFGGGTKLEIK", 9.72),
    ("11K2 scFv mutein L-Y30K (scFv, V domains shown, PDB 2BDN heavy chain; PDB 2BDN light chain) with the stated change) VH: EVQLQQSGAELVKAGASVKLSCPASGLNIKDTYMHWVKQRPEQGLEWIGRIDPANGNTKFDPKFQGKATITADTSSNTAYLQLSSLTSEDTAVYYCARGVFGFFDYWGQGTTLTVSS VL: DIQMTQSSSSFSVSLGDRVTITCKATEDIKNRLAWYQQKPGSAPRLLISGATSLETGVPSRFSGSGSGKDYTLSITSLQTEDVATYYCQQFWSAPYTFGGGTKLEIK", 8.60),
    ("11K2 scFv mutein L-N31R (scFv, V domains shown, PDB 2BDN heavy chain; PDB 2BDN light chain) with the stated change; also called L-D31R (printed once in the results)) VH: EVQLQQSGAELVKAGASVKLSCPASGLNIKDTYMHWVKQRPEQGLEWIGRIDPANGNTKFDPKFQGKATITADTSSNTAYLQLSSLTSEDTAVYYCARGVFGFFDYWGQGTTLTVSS VL: DIQMTQSSSSFSVSLGDRVTITCKATEDIYRRLAWYQQKPGSAPRLLISGATSLETGVPSRFSGSGSGKDYTLSITSLQTEDVATYYCQQFWSAPYTFGGGTKLEIK", 9.77),
]
